I'd appreciate it if you could supply pIC50 values for the items below.
biological target: RIPK2 enzyme (Homo sapiens, UniProt O43353); construct: purchased Carna 09-128; assay: RIPK2 inhibition (ADP-Glo Kinase Assay); type: biochemical; settings: RIPK2 5 nM, ATP 150 μM, MBP substrate, read-out: RIPK2 IC50
Sequence (O43353 1-299 limits assumed): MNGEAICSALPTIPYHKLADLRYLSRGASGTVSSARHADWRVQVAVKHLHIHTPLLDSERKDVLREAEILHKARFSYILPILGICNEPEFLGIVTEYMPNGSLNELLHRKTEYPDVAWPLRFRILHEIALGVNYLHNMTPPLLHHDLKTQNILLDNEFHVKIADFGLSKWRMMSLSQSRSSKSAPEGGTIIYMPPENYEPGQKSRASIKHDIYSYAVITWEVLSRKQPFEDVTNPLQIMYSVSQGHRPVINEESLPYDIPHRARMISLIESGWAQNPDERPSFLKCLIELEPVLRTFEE
pIC50: −log10 of the molar value.

Reference set (3 entries):
compound	result
Cc1c(Oc2ccnc3ccc(S(=O)(=O)N4CCOCC4)cc23)ccc(CC(=O)Nc2cnn(C(C)(C)C)c2)c1F [Compound 274]	> 8.60
Cc1cc(CC(=O)Nc2cnn(C(C)(C)C)c2)c(F)cc1Oc1ccnc2ccc(C(=O)N3CC(C#N)C3)cc12 [Compound 371]	> 8.60
CC(C)(C)c1ccnc(NC(=O)Cc2ccc(Oc3ncnc4ccc(F)cc34)cc2F)c1 [Compound 21]	7.44

We next turn to a different compound, shown below.
-- ask Fill in reported pIC50 for this entry: Cc1c(Oc2ccnc3ccc(C(=O)N(C)C)cc23)ccc(CC(=O)Nc2cnn(C(C)(C)C)c2)c1F [Compound 336]
-- reply > 8.60
